# System: SF-295 CNS
# method: NCI tumour cell line growth inhibition, 48 h; in the data active means GI50 below about 0.43 µM; inactive means the rest
Pick from active, inactive when you respond.

Reference set, count: 8
1. CC[C@@]1(O)C[C@H](OC2CC(N(C)C)C(O)C(C)O2)c2c(O)c3c(c(O)c2[C@H]1OC1CC(N(C)C)C(O)C(C)O1)C(=O)c1cccc(O)c1C3=O (some centres not stated)
active
2. Cc1cc(I)cc(CN(C)CCCCN2CCCCC2)c1O
inactive
3. NC(=O)c1sc(-n2cnc3ccccc32)cc1OCc1ccccc1Br
inactive
4. Cc1ccc2c(=O)cc(-c3ccc(F)cc3)[nH]c2n1
inactive
5. Cn1c2ccccc2c2c(Nc3ccccc3)c3ccccc3nc21
inactive
6. COc1ccc(C(=O)Cn2c(C(=O)c3ccccc3)nc(-c3ccc(OC)cc3)c2-c2ccc(OC)cc2)cc1
inactive
7. COc1ccc2c(C3=C(c4cn(C)c5ccccc45)C(=O)NC3=O)cn(C)c2c1
active
8. O=C1CC(c2ccc3c(c2)OCO3)Nc2ccccc21 (configuration not stated)
inactive

[ask] // outcome(item) with item = "O=C(Nc1ccccc1OC(F)(F)F)Nc1n[nH]c2ccccc12"
[reply] inactive

[ask] // outcome(item) with item = "COc1cc(-c2nn(-c3ccc(NC(=O)c4ccc(Cl)c(C(F)(F)F)c4)cc3)cc2-c2ccncc2)ccc1Cl"
[reply] active
